measurement.notes: Metabolic stability in mouse liver microsomes assessed as parent compound remaining
Assay type: ADME, Microsome
endpoint.name: Stabilty (%)
Report as a plain number; the unit % is understood.

Reference set (5 entries):
C[C@H](O)CNC(=O)[C@@H]1CC[C@@]2(S(=O)(=O)c3ccc(F)cc3)c3ccc(C(F)(C(F)(F)F)C(F)(F)F)cc3CC[C@@H]12; 41
O=C(NC[C@H](O)C(F)(F)F)[C@@H]1CC[C@@]2(S(=O)(=O)c3ccc(F)cc3)c3ccc(C(F)(C(F)(F)F)C(F)(F)F)cc3CC[C@@H]12; 100
C[C@@H](O)CNC(=O)[C@@H]1CC[C@@]2(S(=O)(=O)c3ccc(F)cc3)c3ccc(C(F)(C(F)(F)F)C(F)(F)F)cc3CC[C@@H]12; 51
O=C(NCC1(O)CCCCC1)[C@@H]1CC[C@@]2(S(=O)(=O)c3ccc(F)cc3)c3ccc(C(F)(C(F)(F)F)C(F)(F)F)cc3CC[C@@H]12; 38
C[C@@H](CO)NC(=O)[C@@H]1CC[C@@]2(S(=O)(=O)c3ccc(F)cc3)c3ccc(C(F)(C(F)(F)F)C(F)(F)F)cc3CC[C@@H]12; 55

Please look up its Stabilty: CC(C)(O)C(C)(C)NC(=O)[C@@H]1CC[C@@]2(S(=O)(=O)c3ccc(F)cc3)c3ccc(C(F)(C(F)(F)F)C(F)(F)F)cc3CC[C@@H]12
14

###

# key: entry, value: Stabilty
measurement.notes: Metabolic stability in human liver microsomes assessed as parent compound remaining
Assay type: ADME, Microsome
Report as a plain number; the unit % is understood.

C[C@H](O)CNC(=O)[C@@H]1CC[C@@]2(S(=O)(=O)c3ccc(F)cc3)c3ccc(C(F)(C(F)(F)F)C(F)(F)F)cc3CC[C@@H]12; 34
O=C(NCCO)[C@@H]1CC[C@@]2(S(=O)(=O)c3ccc(F)cc3)c3ccc(C(F)(C(F)(F)F)C(F)(F)F)cc3CC[C@@H]12; 86
CC(C)(O)C(C)(C)NC(=O)[C@@H]1CC[C@@]2(S(=O)(=O)c3ccc(F)cc3)c3ccc(C(F)(C(F)(F)F)C(F)(F)F)cc3CC[C@@H]12; 75
O=C(NCC1(O)CCCC1)[C@@H]1CC[C@@]2(S(=O)(=O)c3ccc(F)cc3)c3ccc(C(F)(C(F)(F)F)C(F)(F)F)cc3CC[C@@H]12; 22
O=C(NCC1(O)CCCCC1)[C@@H]1CC[C@@]2(S(=O)(=O)c3ccc(F)cc3)c3ccc(C(F)(C(F)(F)F)C(F)(F)F)cc3CC[C@@H]12; 5

Please look up its Stabilty: O=C(NCC1(O)CC1)[C@@H]1CC[C@@]2(S(=O)(=O)c3ccc(F)cc3)c3ccc(C(F)(C(F)(F)F)C(F)(F)F)cc3CC[C@@H]12
19

Moving on to the next compound: O=C(NC[C@H](O)C(F)(F)F)[C@@H]1CC[C@@]2(S(=O)(=O)c3ccc(F)cc3)c3ccc(C(F)(C(F)(F)F)C(F)(F)F)cc3CC[C@@H]12
100

Moving on to the next compound: O=C(NCC1(O)CCC1)[C@@H]1CC[C@@]2(S(=O)(=O)c3ccc(F)cc3)c3ccc(C(F)(C(F)(F)F)C(F)(F)F)cc3CC[C@@H]12
74

Moving on to the next compound: C[C@H](CO)NC(=O)[C@@H]1CC[C@@]2(S(=O)(=O)c3ccc(F)cc3)c3ccc(C(F)(C(F)(F)F)C(F)(F)F)cc3CC[C@@H]12
46

###

# key: entry, value: Stabilty
measurement.notes: Metabolic stability in human liver microsomes assessed as parent compound remaining
Assay type: ADME, Microsome
Report as a plain number; the unit % is understood.

CC(C)(O)CNC(=O)[C@@H]1CC[C@@]2(S(=O)(=O)c3ccc(F)cc3)c3ccc(C(F)(C(F)(F)F)C(F)(F)F)cc3CC[C@@H]12; 99

Please look up its Stabilty: C[C@@H](CO)NC(=O)[C@@H]1CC[C@@]2(S(=O)(=O)c3ccc(F)cc3)c3ccc(C(F)(C(F)(F)F)C(F)(F)F)cc3CC[C@@H]12
53

Moving on to the next compound: C[C@@H](O)CNC(=O)[C@@H]1CC[C@@]2(S(=O)(=O)c3ccc(F)cc3)c3ccc(C(F)(C(F)(F)F)C(F)(F)F)cc3CC[C@@H]12
56

###

measurement.notes: Permeability from apical side to basolateral side in human Caco-2 cells
Assay type: ADME, cell-based
condition.summary: read-out: permeability
endpoint.name: Papp A→B

Please look up its Papp A→B: CC(C)(O)CNC(=O)[C@@H]1CC[C@@]2(S(=O)(=O)c3ccc(F)cc3)c3ccc(C(F)(C(F)(F)F)C(F)(F)F)cc3CC[C@@H]12
15 ×10⁻⁶ cm/s

###

# key: entry, value: Stabilty
measurement.notes: Metabolic stability in mouse liver microsomes assessed as parent compound remaining
Assay type: ADME, Microsome
Report as a plain number; the unit % is understood.

Reference set (5 entries):
C[C@H](CO)NC(=O)[C@@H]1CC[C@@]2(S(=O)(=O)c3ccc(F)cc3)c3ccc(C(F)(C(F)(F)F)C(F)(F)F)cc3CC[C@@H]12; 39
O=C(NCC1(O)CCC1)[C@@H]1CC[C@@]2(S(=O)(=O)c3ccc(F)cc3)c3ccc(C(F)(C(F)(F)F)C(F)(F)F)cc3CC[C@@H]12; 57
O=C(NCCO)[C@@H]1CC[C@@]2(S(=O)(=O)c3ccc(F)cc3)c3ccc(C(F)(C(F)(F)F)C(F)(F)F)cc3CC[C@@H]12; 78
O=C(NCC1(O)CC1)[C@@H]1CC[C@@]2(S(=O)(=O)c3ccc(F)cc3)c3ccc(C(F)(C(F)(F)F)C(F)(F)F)cc3CC[C@@H]12; 26
CC(C)(O)CNC(=O)[C@@H]1CC[C@@]2(S(=O)(=O)c3ccc(F)cc3)c3ccc(C(F)(C(F)(F)F)C(F)(F)F)cc3CC[C@@H]12; 77

// moving on: another record for Stabilty
Please look up its Stabilty: O=C(NCC1(O)CCCC1)[C@@H]1CC[C@@]2(S(=O)(=O)c3ccc(F)cc3)c3ccc(C(F)(C(F)(F)F)C(F)(F)F)cc3CC[C@@H]12
41
